# system_name: T1, PcrV (aa136-257).6xhis (Pseudomonas aeruginosa)
# T1 chain: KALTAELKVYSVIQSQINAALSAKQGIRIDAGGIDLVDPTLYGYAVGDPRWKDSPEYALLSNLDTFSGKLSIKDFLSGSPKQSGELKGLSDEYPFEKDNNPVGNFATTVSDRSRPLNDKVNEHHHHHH
# protocol_description: SPR (Biacore T200), mAb captured via anti-human Fc, PcrV injected, 25 C
Please respond with reported koff for every item in the list.
Answer format: value, then unit.

Below: 3 binders and their reported koff.
binder: H1H29339P (antibody, V domains shown) VH: EVQLVESGGDLVQPGGSLRLSCAASGFTFNTYAMNWVRQAPGKGLEWVAVIGGSGYSTNYADSVKGRFTISRDNSKNTLYLQMNSLRTEDTAVYYCAKEGNIVALYWYFDLWGRGTLVTVSS VL: DIQMTQSPSSLSASVGDRVTITCRASQSISRYLNWYQQKPGKAPKLLIYAASSLQGGVPSKFSGSGSGTDFTLTISSLQPEDFATYYCQQSSTTPLTFGGGTKVEIKR
koff: 2.76e-05 s⁻¹
--
binder: REGN3514 (antibody, V domains shown, also called Control I; Control I-REGN3514) VH: EMQLLESGGGLVQPGGSLRLSCAASGFTFSSYAMNWVRQAPGEGLEWVSAITISGITAYYTDSVKGRFTISRDNSKNTLYLQMNSLRAGDTAVYYCAKEEFLPGTHYYYGMDVWGQGTTVTVSS VL: AIQMTQSPSSLSASVGDRVTITCRASQGIRNDLGWYQQKPGKAPKLVIYSASTLQSGVPSRFSGSGSGTDFTLSISSLQPDDFATYYCLQDYNYPWTFGQGTKVEIKR
koff: 0.000122 s⁻¹
--
binder: H1H29329P (antibody, V domains shown) VH: EVQLVESGGGLVQPGGSLRLSCAASGFTFSDHEMNWVRQAPGKGLEWISYIGSGVVTMYYADSVRGRFTISRDNAKKTLYLQMNSLRAEDTAVYYCARDRGYYFGSEAFHYWGQGTLVTVSS VL: DIQMTQSPSTLSASVGDRVTITCRASQSISNWLAWYQQKPGKAPKLLIYKSSSLESGVPSRFSGSGSGTEFTLTISSLQPDDFATYYCQQYKSYSLTFGGGTKVEIKR
koff: 0.0023 s⁻¹

Read the next record carefully.
The binder identified as H1H29336P (antibody, V domains shown) VH: EVQLVESGGGLVQPGGSLRLSCAASGFTFSSYAMTWVRQAPGKGLEWVSSIRGSGYSSDYADSVKGRFTISRDNSENTVYLQMNRLRAEDTAVYYCAKERSVTAYYYYGMDVWGQGTTVTVSS VL: DIQLTQSPSFLSASVGDRVTITCWASQDISSFLTWYQQKPGIAPKLLIYTASTLQSGVPSRFSGSGSGTEFTLTISSLQPEDFATYYCQQLKSYPLTFGGGTKVEIKR registered its koff at 1.48e-05 s⁻¹
